biological target: Protein kinase C beta type (Homo sapiens) (UniProt P05771); conditions: at 0.1 µM;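 further: measured against the PKC-beta2 splice variant, with values reported as mean percent inhibition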
Sequence (P05771 2-671 limits assumed): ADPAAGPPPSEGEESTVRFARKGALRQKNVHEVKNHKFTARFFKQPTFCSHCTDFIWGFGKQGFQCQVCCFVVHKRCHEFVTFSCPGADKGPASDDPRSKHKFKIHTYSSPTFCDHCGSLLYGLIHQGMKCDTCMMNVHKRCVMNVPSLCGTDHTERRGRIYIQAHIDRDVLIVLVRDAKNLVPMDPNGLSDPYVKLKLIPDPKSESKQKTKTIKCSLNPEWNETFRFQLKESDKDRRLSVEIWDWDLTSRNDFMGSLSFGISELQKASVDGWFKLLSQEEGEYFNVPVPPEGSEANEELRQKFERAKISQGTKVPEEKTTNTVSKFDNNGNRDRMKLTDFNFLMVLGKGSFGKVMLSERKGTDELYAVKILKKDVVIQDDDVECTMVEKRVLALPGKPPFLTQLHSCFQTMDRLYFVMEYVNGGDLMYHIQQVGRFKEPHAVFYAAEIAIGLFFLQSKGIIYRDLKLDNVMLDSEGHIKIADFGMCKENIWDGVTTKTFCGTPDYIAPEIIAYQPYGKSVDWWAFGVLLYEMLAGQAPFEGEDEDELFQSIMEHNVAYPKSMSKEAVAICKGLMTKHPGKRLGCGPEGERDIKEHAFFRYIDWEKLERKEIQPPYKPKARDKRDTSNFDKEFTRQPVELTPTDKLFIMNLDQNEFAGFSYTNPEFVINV
Description: GSK_PKIS: PKC-beta2 (splice variant) mean inhibition at 0.1 uM [Nanosyn]
Entries and their inhibition
The reply should contain only the number, in %.

- CC1=C(C(=O)Nc2ccc3[nH]ncc3c2)C(c2ccc(Cl)c(Cl)c2)CC(=O)N1 (stereo unspecified): 0.17

Data request: Return reported inhibition; argument: Cc1cc(O)cc(C)c1/C=C/c1cncc(-c2nn[nH]n2)c1
Data returned: 1.15

Data request: Need inhibition of Cn1cc(C=C2C(=O)Nc3cccnc32)c2ccccc21 , thanks.
Data returned: 0.8

----------
// inhibition lookup, one value per entry
target: Cyclin-dependent kinase 2 (Homo sapiens); conditions: at 1 µM;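 further: mean inhibition measured against the CDK2/cyclin E complex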
Write the value in % as a bare number.

- CS(=O)(=O)CCNCc1ccc(-c2ccc3ncnc(Nc4ccc(OCc5ccccc5)c(Cl)c4)c3c2)o1: 4.5
- CCn1c(-c2nonc2N)nc2c(C#CC(C)(C)O)nc(CN3CCCC3)cc21: 1.53
- CCCN1CCC=C(c2ccc(Nc3nc(Nc4ccccc4C(N)=O)c4cc[nH]c4n3)c(C)c2)C1: 28.3
- COc1ccc(-c2coc3ncnc(N)c23)cc1: 7.82
- NC(=O)c1cccc(Nc2nccc(Nc3cccc4[nH]ncc34)n2)c1: 34.2
- O=C(Nc1n[nH]c2nc(-c3ccco3)c(Br)cc12)C1CC1: 9.11
- CC1=C(C(=O)Nc2ccc3[nH]ncc3c2)C(c2ccc(F)cc2)NC(=O)N1 (stereo not drawn): 9.24
- O=C1Nc2ccc(C(=O)c3ccco3)cc2C1=Cc1cc(Cl)c(O)c(Cl)c1: 15.7
- Cc1nnc(-c2ccc(C)c(-c3ccc(C(=O)Nc4cccc(C#N)c4)cc3)c2)o1: 2.15
- Nc1nc(-c2ccc3c(c2)C(=Cc2cc(Br)c(O)c(Br)c2)C(=O)N3)cs1: 2.91

Data request: Kindly state the measured inhibition obtained for CNC(=O)c1cncc(/C=C/c2c(Cl)cccc2Cl)c1 with Cyclin-dependent kinase 2 (Homo sapiens).
Data returned: 3.85

Taken from ChEMBL document CHEMBL1961873.
